From: PubChem BioAssay (NCI)

System: NCI/ADR-RES ovarian
Experiment: NCI tumour cell line growth inhibition, 48 h
measurement type: TGI (µM)
Numbers only here, please. The scale is µM.

Example entries and their recorded answers appear below.
Exam item: // lookup TGI | system=NCI/ADR-RES ovarian | key= CCc1cccc(C(C)C)c1NC1=C([n+]2ccc(C)cc2)C(=O)c2ccccc2C1=O
Marked response: 37.8

Exam item: // lookup TGI | system=NCI/ADR-RES ovarian | key= Cc1cc2oc(=O)c(Cl)c(Cl)c2c(C)c1Cl
Marked response: 38.4

Others:
Exam item: // lookup TGI | system=NCI/ADR-RES ovarian | key= O=C(OCC(Cl)(Cl)Cl)N1CC[C@@H](C2CCCCC2)C1
Marked response: 32.9

Exam item: // lookup TGI | system=NCI/ADR-RES ovarian | key= Oc1ccc(NCc2cc(O)ccc2O)cc1
Marked response: 51.3

Exam item: // lookup TGI | system=NCI/ADR-RES ovarian | key= CCc1ccc(Oc2nccc(-c3c(-c4ccc(F)cc4)ncn3C3CCNCC3)n2)cc1
Marked response: 12.9

Exam item: // lookup TGI | system=NCI/ADR-RES ovarian | key= O=C(NCCSSCCNC(=O)/C(Cc1ccc(O)c(Br)c1)=N/O)/C(Cc1ccc(O)c(Br)c1)=N/O
Marked response: 7.97

Exam item: // lookup TGI | system=NCI/ADR-RES ovarian | key= Cc1cc(CN(Cc2ccccc2)Cc2nc3ccccc3[nH]2)c(O)c(CN(Cc2nc3ccccc3[nH]2)Cc2nc3ccccc3[nH]2)c1
Marked response: 35.9

Exam item: // lookup TGI | system=NCI/ADR-RES ovarian | key= COc1ccc2[nH]c3c(C)c4ccnc(NCCCN(C)CCCN)c4c(C)c3c2c1
Marked response: 2.09

Exam item: // lookup TGI | system=NCI/ADR-RES ovarian | key= C[C@@H](Oc1cc(-c2cnn(C3CC4(CNC4)C3)c2)cnc1N)c1c(Cl)ccc(F)c1Cl
Marked response: 31

Exam item: // lookup TGI | system=NCI/ADR-RES ovarian | key= COC1=CCC2=C(CCN(C(=O)C3CC3)C2Cc2ccc(OC)c(O)c2)C1 (stereo unspecified)
Marked response: 55.4

* * *

Tested on: A498 renal
Test: NCI tumour cell line growth inhibition, 48 h
measurement type: TGI

Exam item: Entry CCNC(=S)Nc1c(C#N)c2n(c1C(=O)OCC)CCCCC2 : reported TGI = ?
Marked response: > 100 µM

Exam item: Entry O=c1c(-c2ccc3c(c2)OCO3)coc2c(CO)c(O)ccc12 : reported TGI = ?
Marked response: 3.95 µM

Exam item: Entry CC(C)(C)c1cc(Oc2ccc(C#N)c(C#N)c2)cc(C(C)(C)C)c1 : reported TGI = ?
Marked response: > 100 µM

Turning now to a further record.
Exam item: Entry CN(C)C=NCc1ccc2c(c1)OCO2 : reported TGI = ?
Marked response: > 100 µM

* * *

We begin with a simple list: items and their reported TGI.
Test system: A549 NSCLC
Test: NCI tumour cell line growth inhibition, 48 h
*1 amine or outer side, *2 acyl side, *3 side chain or, on linkers, in order; H or OH if unused. Where a SMILES comes first, the peptide text is derived from it. Bridges are numbered along the chain shown (N, C = ends). Roman numbers before positions name the chains, in order. X23 = CCCCCCCCCCCCCCC(=O)NC(CCCCN[*:2])C(=O)CN1CCCC1C(=O)[*:1]
Numbers only here, please. The scale is µM.

Exam item: Entry CCCCCCCCCCCCCCC(=O)NC(CCCCNC(=O)C1CCCN1C(=O)C(CCCCN)NC(=O)C(CCCCN)NC(=O)C(CCCCN)NC(=O)C(CCCNC(=N)N)NC(=O)C(CCCCN)NC(=O)C(N)C(C)C)C(=O)CN1CCCC1C(=O)NCC(=O)NC(Cc1ccccc1)C(=O)N1CCCC1C(=O)NC(CO)C(=O)NC(Cc1ccc(O)cc1)C(=O)NC(CCCCN)C(=O)NC(CC(C)C)C(=O)NC(CCCNC(=N)N)C(=O)N1CCCC1C(=O)NCC(N)=O (centres undefined) (I: GFPSYKLRPG-NH2 / II: H-VKRKKKP; linker I:N-II:C via X23; configuration not given here) : reported TGI = ?
Marked response: 43.1

Others:
Exam item: Entry N#Cc1c(N)nc2c(N=Nc3ccccc3)c(N)nn2c1Nc1ccccc1 : reported TGI = ?
Marked response: 46.9

* * *

We begin with a simple list: items and their reported TGI.
System: SF-268 CNS
Assay: NCI tumour cell line growth inhibition, 48 h

Exam item: Entry O=CNNC(=O)CSc1nc2ccc(I)cc2c(=O)n1Cc1ccccc1 : reported TGI = ?
Marked response: > 100 µM

Exam item: Entry COc1ccc(/C=C/c2ccnc3ccccc23)cc1 : reported TGI = ?
Marked response: 30.4 µM

Exam item: Entry O=C(O)/C(=C/c1ccccc1[N+](=O)[O-])c1cccs1 : reported TGI = ?
Marked response: > 100 µM

Exam item: Entry Cc1ccc(-n2nnc3c(sc4ccccc43)c2=O)cc1 : reported TGI = ?
Marked response: 71 µM

Others:
Exam item: Entry COc1ccc(-c2nnc(Nc3nc(O)c(C4=c5cc(OC(F)(F)F)ccc5=NC4=O)s3)o2)cc1 : reported TGI = ?
Marked response: > 100 µM

Exam item: Entry CC(C)(C)c1cc(Oc2ccc(C#N)c(C#N)c2)cc(C(C)(C)C)c1 : reported TGI = ?
Marked response: > 100 µM

Exam item: Entry O=C1NC(=O)/C(=C/c2ccc(S(=O)(=O)N/N=C/c3ccccc3)cc2)N1 : reported TGI = ?
Marked response: > 100 µM

* * *

System: NCI-H226 lung
Assay: NCI tumour cell line growth inhibition, 48 h; in the data active = GI50 below about 0.43 µM; inactive = the rest
*1 amine or outer side, *2 acyl side, *3 side chain or, on linkers, in order; H or OH if unused. Where a SMILES comes first, the peptide text is derived from it. Bridges are numbered along the chain shown (N, C = ends). Roman numbers before positions name the chains, in order. X23 = CCCCCCCCCCCCCCC(=O)NC(CCCCN[*:2])C(=O)CN1CCCC1C(=O)[*:1]
Bench note: report the call from active, inactive

Worked examples follow.
Exam item: What did this assay record as the result for O=C(N/N=C/c1ccncc1)c1ccc(C(F)(F)F)nc1Nc1cccc(C(F)(F)F)c1 ?
Marked response: inactive

Exam item: What did this assay record as the result for CCCCCCCCCCCCCCC(=O)NC(CCCCNC(=O)C1CCCN1C(=O)C(CCCCN)NC(=O)C(CCCCN)NC(=O)C(CCCCN)NC(=O)C(CCCNC(=N)N)NC(=O)C(CCCCN)NC(=O)C(N)C(C)C)C(=O)CN1CCCC1C(=O)NCC(=O)NC(Cc1ccccc1)C(=O)N1CCCC1C(=O)NC(CO)C(=O)NC(Cc1ccc(O)cc1)C(=O)NC(CCCCN)C(=O)NC(CC(C)C)C(=O)NC(CCCNC(=N)N)C(=O)N1CCCC1C(=O)NCC(N)=O (stereo not drawn) (I: GFPSYKLRPG-NH2 / II: H-VKRKKKP; linker I:N-II:C via X23; configuration not given here) ?
Marked response: inactive

Exam item: What did this assay record as the result for CC[C@@]1(O)C(=O)OCc2c1cc1n(c2=O)Cc2cc3c(Cl)c4c(cc3nc2-1)OCO4 ?
Marked response: active

Exam item: What did this assay record as the result for Cc1ccc(C2NC(=S)N3C(c4ccc(C)cc4)NC(=S)N23)cc1 (stereo not drawn) ?
Marked response: inactive

Exam item: What did this assay record as the result for COc1cc(-c2nccc3[nH]c(-c4cccc5[nH]ccc45)nc23)cc(OC)c1OC ?
Marked response: inactive

Exam item: What did this assay record as the result for COc1cc2c(cc1OCc1ccccc1)N=C[C@@H]1C[C@@H](F)CN1C2=O ?
Marked response: active

Exam item: What did this assay record as the result for COc1ccc(C2=NNC(c3cc(Cc4ccc(O)c(C5CC(c6ccc(OC)cc6)=NN5)c4)ccc3O)C2)cc1 (stereo not drawn) ?
Marked response: inactive

Exam item: What did this assay record as the result for Cc1cc(N2CCN(C)CC2)nc(N(CCNc2ccnc3cc(Cl)ccc23)Cc2ccco2)n1 ?
Marked response: inactive

Exam item: What did this assay record as the result for C=C1C(=O)O[C@H]2[C@H]1CC/C(COC(=O)c1cccc3ccccc13)=C\CC[C@@]1(C)O[C@@H]21 ?
Marked response: inactive

Exam item: What did this assay record as the result for COc1ccc(-c2nnc(Nc3nc(O)c(C4=c5cc(OC(F)(F)F)ccc5=NC4=O)s3)o2)cc1 ?
Marked response: inactive

Others:
Exam item: What did this assay record as the result for Cc1ccc(-n2nnc3c(sc4ccccc43)c2=O)cc1 ?
Marked response: inactive

Exam item: What did this assay record as the result for CC(N)CN.CC(N)CN.[Cl-].[O]=[Os+2]=[O] (stereo not drawn) ?
Marked response: inactive

Exam item: What did this assay record as the result for C/C(=C\CCc1ccsc1)CC/C=C(\C)CCCN1CCN(CCO)CC1 ?
Marked response: inactive

* * *

Tested on: SF-295 CNS
Experiment: NCI tumour cell line growth inhibition, 48 h
We begin with a simple list: items and their reported TGI.

Exam item: Entry O=[P+](O)c1cccs1 : reported TGI = ?
Marked response: > 100 µM

Exam item: Entry C=C(CS(=O)(=O)c1ccccc1)C(=O)OCC : reported TGI = ?
Marked response: 32 µM

Exam item: Entry N=C1/C(=C/c2ccccc2)C(=O)N=C2SC=NN12 : reported TGI = ?
Marked response: > 100 µM

Exam item: Entry Cc1ccccc1C(=O)NC(O)(C(F)(F)F)C(F)(F)F : reported TGI = ?
Marked response: > 100 µM

Exam item: Entry O=C1C=Cc2c1csc2Br : reported TGI = ?
Marked response: > 100 µM

Exam item: Entry O=C1NC(=O)/C(=C/c2ccc(S(=O)(=O)N/N=C/c3ccccc3)cc2)N1 : reported TGI = ?
Marked response: > 100 µM

Exam item: Entry Cc1cc(N2CCN(C)CC2)nc(N(CCNc2ccnc3cc(Cl)ccc23)Cc2ccco2)n1 : reported TGI = ?
Marked response: 3.79 µM

Exam item: Entry [CH3][Sn]([CH3])([CH3])[O]C(=O)C(O)c1ccccc1 (stereo unspecified) : reported TGI = ?
Marked response: 16.9 µM

Others:
Exam item: Entry Cc1ccc(NC(=O)CC(=O)n2nc(-c3ccccc3)c(N=Nc3ccccc3C(=O)O)c2-c2ccccc2)cc1 : reported TGI = ?
Marked response: > 100 µM

Exam item: Entry COc1cccc(C(C#N)NC23CC4CC(CC(C4)C2)C3)c1 (stereo unspecified) : reported TGI = ?
Marked response: > 100 µM

Exam item: Entry O=[N+]([O-])c1ccc(N/N=C/c2ccccc2O)nc1 : reported TGI = ?
Marked response: > 100 µM
